Test system: PPARg homodimer (NR concentration 180 nM)
assay name: PBM binding z-score (relative to random genomic background probes); higher = stronger binding; sequences stand for … in GC…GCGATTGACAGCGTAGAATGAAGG
Provide the reported PBM binding z-score of each item.

**Query** Requested read-out: PBM binding z-score. Entry: `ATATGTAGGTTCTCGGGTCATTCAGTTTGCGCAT`
**Result** 1.96

**Query** Requested read-out: PBM binding z-score. Entry: `TCTCGGAGGACACGCAAGGTCAGAGCTCGACATC`
**Result** 0.657

**Query** Requested read-out: PBM binding z-score. Entry: `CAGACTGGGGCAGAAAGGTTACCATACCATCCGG`
**Result** 2.11

**Query** Requested read-out: PBM binding z-score. Entry: `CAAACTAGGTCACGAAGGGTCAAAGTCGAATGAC`
**Result** 6.07

**Query** Requested read-out: PBM binding z-score. Entry: `TCATATAGGTAAACAGGTGAAAGCCCGTAAGTTA`
**Result** 0.824

**Query** Requested read-out: PBM binding z-score. Entry: `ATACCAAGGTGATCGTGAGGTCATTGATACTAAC`
**Result** 2.35

**Query** Requested read-out: PBM binding z-score. Entry: `CCAGACAGGTGAGAAGGTAACGCAGCCTCGATTA`
**Result** 0.904

**Query** Requested read-out: PBM binding z-score. Entry: `CCAGACAGGTGAGAAGGTATCTCAGCCTCGATTA`
**Result** 0.414

**Query** Requested read-out: PBM binding z-score. Entry: `AATACAGGGTCATCGTAGGCCAGAGAACGCACAG`
**Result** 2.96

**Query** Requested read-out: PBM binding z-score. Entry: `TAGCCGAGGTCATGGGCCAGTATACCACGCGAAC`
**Result** 2.7
